From: ChEMBL document CHEMBL1143656

Target: Gamma-secretase
Assay: Inhibitory concentration against Gamma-secretase in whole cell inhibition assay using SH-SY5Y cells
pIC50: −log10 of the molar value.
reportedEndpoint: pIC50

(a) CC(C)CCCC(=O)Nc1ccc2c(c1)CC1CCC(C2)C1NS(=O)(=O)c1ccccc1 (centres undefined)
(b) O=C(Nc1ccc2c(c1)CC1CCC(C2)C1NS(=O)(=O)c1ccccc1)OCc1ccc(Cl)cc1 (centres undefined)
(c) O=C(Nc1ccc2c(c1)CC1CCC(C2)C1NS(=O)(=O)c1ccccc1)OCc1ccccc1Cl (centres undefined)
Query: Ascending by pIC50, please: list the molecules accordingly. Sort the labels as requested; that list is your answer.
Result: a, c, b
(a: 6.27, c: 6.82, b: 7.80)

* * *

Target: Gamma-secretase
Assay: Inhibitory concentration against Gamma-secretase in whole cell inhibition assay using SH-SY5Y cells
reportedEndpoint: IC50 (nM)

1) CCN(CC)CC(=O)Nc1ccc2c(c1)CC1CCC(C2)C1NS(=O)(=O)c1ccc(Cl)s1 (stereo unspecified) = 41
2) O=S(=O)(NC1C2CCC1Cc1cc(Cl)ccc1C2)c1ccc(Cl)s1 (stereo unspecified) = 146
3) CC1CCCCN1CCOc1ccc2c(c1)CC1CCC(C2)C1NS(=O)(=O)c1ccc(Cl)s1 (stereo unspecified) = 227

(1) O=S(=O)(NC1C2CCC1Cc1ccccc1C2)c1cccc(F)c1 (stereo unspecified)
(2) CN(CC(=O)Nc1ccc2c(c1)CC1CCC(C2)C1NS(=O)(=O)c1ccc(Cl)s1)Cc1ccccc1 (stereo unspecified)
(3) O=S(=O)(NC1C2CCC1Cc1cc(/C=C/CN3CCN(c4ccccc4)CC3)ccc1C2)c1ccc(Cl)s1 (stereo unspecified)
Query: Ordering criterion: IC50; begin with the maximum. Sort the labels as requested; that list is your answer.
Result: 1, 2, 3
(1: 324 nM, 2: 226 nM, 3: 21 nM)

* * *

Biological target: Gamma-secretase
Assay: Inhibitory concentration against Gamma-secretase in whole cell inhibition assay using SH-SY5Y cells
reportedEndpoint: IC50 (nM)

1) O=C(Nc1ccc2c(c1)CC1CCC(C2)C1NS(=O)(=O)c1ccccc1)OCc1cccc(Cl)c1 (stereo not given) = 412
2) O=S(=O)(NC1C2CCC1Cc1ccccc1C2)c1ccccc1F (stereo not given) = 239

(A) O=S(=O)(NC1C2CCC1Cc1cc(O)ccc1C2)c1ccc(Cl)s1 (stereo not given)
(B) COc1ccc2c(c1)CC1CCC(C2)C1NS(=O)(=O)c1ccc(Cl)s1 (stereo not given)
Query: Please indicate which has the smaller reported IC50: A , or B . Your answer should be the label of the entry you select.
Result: A
(A: 269 nM, B: 490 nM)
